- Assay Overview: yeast display, Sf9 membrane polyspecificity reagent, FACS + sequencing; frameworks hold sequencing errors
Quantity: polyreactivity (PSR sort gate)

As a guide, the following entries are already answered.
Item Sequence	polyreactivity (PSR sort gate)
QVQLVESGGGLVQAGGSLRLSCAASGRIFRWYAMGWYRQAPGKERELVATISSTGGSTYYADSVKGRFTISRDNAKNTVYLQMNSLKPEDTAVYYCAVDPRGHEGVRYNYWGQGTQVTVSS	low polyreactivity
QVQLVESGGGLVQAGGSLRLSCAASGRSFAWYTMGWYRQAPGKERELVAAISGSGGSTYYADSVKGRFTISRDNAKNTVYLQMNSLKPEDSALYYGARRVDSYYGHTRFYYWGQGTQVTVSS	high polyreactivity
QVQLVESGVGLVQAGGSLRLSCAASGRPFVAYAMGWYRQAPGTERELVARISSGGGTYADSVKGRFTISRDNAKNTVYLQMNSLKPEDTAVYYCATSLQRQFDYWGQGTQVTVSS	low polyreactivity
QVQLVESGGGLVQAGGSLRLSCAASGSIFSSYVMGWYRQAPGKERELVAAITFSGATTYYADSVKGRFTISRDNAKNTVYLQMNSLKPEDTAVYYCATKAYTTGRYYWGQGTQVTVSS	high polyreactivity

-- ask What measured polyreactivity (PSR sort gate) goes with QVQLVESGGGLVQAGGSLRLSCAASGFTIRYYTMGWYRQAPGKERELVAAITWSGGRTYYADSVKGRFTISRDNAKNTVYLQMNSLKPDETAVYYCAADVTKRASRDYYWGQGTQVTVSS ?
-- reply high polyreactivity
